Test: Single ascending dose study in healthy volunteers, plasma PK (Example 2)
Type: in vivo, human
Details: 22 mg, fasted
Quantity measured: Mean (±SD) C12h (ng/mL)
Answers are plain numbers, in ng/mL.

So, [2H][C@@](C)(NC(=O)COC(F)F)c1cc(F)cc(Cl)c1COc1cccc2c(-c3ncnn3C)cc(C)nc12 ? Its Mean (±SD) C12h was 8.34

----------
Assay: Single ascending dose study in healthy volunteers, plasma PK (Example 2)
Assay type: in vivo, human
Details: human, plasma, oral, 1 mg to 22 mg, fasting; read-out: Median tmax in the dose range
Quantity measured: Tmax

[2H][C@@](C)(NC(=O)COC(F)F)c1cc(F)cc(Cl)c1COc1cccc2c(-c3ncnn3C)cc(C)nc12 has a reported Tmax of 30 to 60 min

----------
Assay: Single ascending dose study in healthy volunteers, plasma PK (Example 2)
Assay type: in vivo, human
Settings: human, plasma, oral, 22 mg, HCHF breakfast vs fasted; read-out: delay of median tmax after HCHF breakfast
Quantity measured: Tmax

Per the records, this molecule ( [2H][C@@](C)(NC(=O)COC(F)F)c1cc(F)cc(Cl)c1COc1cccc2c(-c3ncnn3C)cc(C)nc12 [compound of formula (I)] ) has Tmax equal to ~2 h

----------
Experiment: Single ascending dose study in healthy volunteers, plasma PK (Example 2)
Assay type: in vivo, human
Conditions: human, plasma, oral, 12 mg, fasted; mean; read-out: t1/2 (converted)
Quantity measured: half-life (h)
Numbers only, in h.

Documented half-life of [2H][C@@](C)(NC(=O)COC(F)F)c1cc(F)cc(Cl)c1COc1cccc2c(-c3ncnn3C)cc(C)nc12 [compound of formula (I)] : 4.25

----------
Test: Single ascending dose study in healthy volunteers, plasma PK (Example 2)
Format: in vivo, human
Settings: human, plasma, oral, 1 mg, fasted; mean; read-out: C12h
Quantity measured: concentration at 12 h (ng/mL)
Give bare numbers, in ng/mL.

Query [2H][C@@](C)(NC(=O)COC(F)F)c1cc(F)cc(Cl)c1COc1cccc2c(-c3ncnn3C)cc(C)nc12 [compound of formula (I)] yields concentration at 12 h of 0.528

----------
Test: Single ascending dose study in healthy volunteers, plasma PK (Example 2)
Type: in vivo, human
Details: 22 mg, fasted
Quantity measured: Mean C24h (ng/mL)
One number for each entry, in ng/mL.

Mean C24h reading for [2H][C@@](C)(NC(=O)COC(F)F)c1cc(F)cc(Cl)c1COc1cccc2c(-c3ncnn3C)cc(C)nc12 : 1.12

----------
Assay: Single ascending dose study in healthy volunteers, plasma PK (Example 2)
Type: in vivo, human
Conditions: human, plasma, oral, 1 mg, fasted; mean; read-out: C0.25h
Quantity measured: concentration at 0.25 h (ng/mL)
One number for each entry, in ng/mL.

Looking up [2H][C@@](C)(NC(=O)COC(F)F)c1cc(F)cc(Cl)c1COc1cccc2c(-c3ncnn3C)cc(C)nc12 , I see its concentration at 0.25 h listed as 5.99

----------
Test: Single ascending dose study in healthy volunteers, plasma PK (Example 2)
Format: in vivo, human
Conditions: human, plasma, oral, 4.5 mg, fasted; mean; read-out: C0.25h
Quantity measured: concentration at 0.25 h (ng/mL)
Numbers only, in ng/mL.

Sample [2H][C@@](C)(NC(=O)COC(F)F)c1cc(F)cc(Cl)c1COc1cccc2c(-c3ncnn3C)cc(C)nc12 ; concentration at 0.25 h observed: 13

----------
Experiment: Single ascending dose study in healthy volunteers, plasma PK (Example 2)
Type: in vivo, human
Conditions: human, plasma, oral, 22 mg, fasted; mean; read-out: C12h
Quantity measured: concentration at 12 h (ng/mL)
Answers are plain numbers, in ng/mL.

Recorded result, [2H][C@@](C)(NC(=O)COC(F)F)c1cc(F)cc(Cl)c1COc1cccc2c(-c3ncnn3C)cc(C)nc12 , concentration at 12 h: 8.34

----------
Experiment: Single ascending dose study in healthy volunteers, plasma PK (Example 2)
Assay type: in vivo, human
Conditions: human, plasma, oral, 2 mg, fasted; mean
Quantity measured: Cmax (ng/mL)
One number for each entry, in ng/mL.

The compound [2H][C@@](C)(NC(=O)COC(F)F)c1cc(F)cc(Cl)c1COc1cccc2c(-c3ncnn3C)cc(C)nc12 [compound of formula (I)] showed Cmax equal to 19.8

----------
Experiment: Single ascending dose study in healthy volunteers, plasma PK (Example 2)
Format: in vivo, human
Conditions: human, plasma, oral, 1 mg, fasted; mean
Quantity measured: AUC(0-t) (ng·h/mL)
Numbers only, in ng·h/mL.

Value of AUC(0-t) reported for the molecule [2H][C@@](C)(NC(=O)COC(F)F)c1cc(F)cc(Cl)c1COc1cccc2c(-c3ncnn3C)cc(C)nc12 is 33

----------
Experiment: Single ascending dose study in healthy volunteers, plasma PK (Example 2)
Type: in vivo, human
Settings: human, plasma, oral, 22 mg, after HCHF breakfast; median; read-out: tmax
Quantity measured: Tmax (h)
Numbers only, in h.

The molecule listed as [2H][C@@](C)(NC(=O)COC(F)F)c1cc(F)cc(Cl)c1COc1cccc2c(-c3ncnn3C)cc(C)nc12 has a reported Tmax of 3

----------
Experiment: Single ascending dose study in healthy volunteers, plasma PK (Example 2)
Type: in vivo, human
Details: human, plasma, oral, 12 mg, fasted; mean
Quantity measured: Cmax

Documented Cmax of [2H][C@@](C)(NC(=O)COC(F)F)c1cc(F)cc(Cl)c1COc1cccc2c(-c3ncnn3C)cc(C)nc12 : 97.3 ng/mL

----------
Assay: Single ascending dose study in healthy volunteers, plasma PK (Example 2)
Assay type: in vivo, human
Settings: human, plasma, po, single oral doses 1-22 mg; read-out: mean t1/2 between doses
Quantity measured: half-life

half-life in this record for [2H][C@@](C)(NC(=O)COC(F)F)c1cc(F)cc(Cl)c1COc1cccc2c(-c3ncnn3C)cc(C)nc12 : 3.5 to 5.6 h

----------
Test: Single ascending dose study in healthy volunteers, plasma PK (Example 2)
Type: in vivo, human
Settings: human, plasma, oral, 2 mg, fasted; mean; read-out: C0.25h
Quantity measured: concentration at 0.25 h (ng/mL)
Give bare numbers, in ng/mL.

Documented concentration at 0.25 h of [2H][C@@](C)(NC(=O)COC(F)F)c1cc(F)cc(Cl)c1COc1cccc2c(-c3ncnn3C)cc(C)nc12 : 12.9

----------
Experiment: Single ascending dose study in healthy volunteers, plasma PK (Example 2)
Format: in vivo, human
Conditions: human, plasma, oral, 12 mg, fasted; mean; read-out: C12h
Quantity measured: concentration at 12 h (ng/mL)
Answers are plain numbers, in ng/mL.

Looking up [2H][C@@](C)(NC(=O)COC(F)F)c1cc(F)cc(Cl)c1COc1cccc2c(-c3ncnn3C)cc(C)nc12 , I see its concentration at 12 h listed as 5.58

----------
Assay: Single ascending dose study in healthy volunteers, plasma PK (Example 2)
Type: in vivo, human
Settings: human, plasma, oral, 1 mg, fasted; mean; read-out: t1/2 (converted)
Quantity measured: half-life (h)
Give bare numbers, in h.

The compound listed as [2H][C@@](C)(NC(=O)COC(F)F)c1cc(F)cc(Cl)c1COc1cccc2c(-c3ncnn3C)cc(C)nc12 shows half-life equal to 3.49

----------
Assay: Single ascending dose study in healthy volunteers, plasma PK (Example 2)
Assay type: in vivo, human
Conditions: human, plasma, oral, 4.5 mg, fasted; mean; read-out: t1/2 (converted)
Quantity measured: half-life

Measured half-life, [2H][C@@](C)(NC(=O)COC(F)F)c1cc(F)cc(Cl)c1COc1cccc2c(-c3ncnn3C)cc(C)nc12 : 4.36 h

----------
Assay: clinical
Conditions: human, in vivo, po, 12 mg
Quantity measured: Tmax

According to the records, this compound [2H][C@@](C)(NC(=O)COC(F)F)c1cc(F)cc(Cl)c1COc1cccc2c(-c3ncnn3C)cc(C)nc12 displays Tmax of 30 to 60 min

----------
Assay: Single ascending dose study in healthy volunteers, plasma PK (Example 2)
Format: in vivo, human
Settings: human, plasma, oral, 1 mg, fasted; mean
Quantity measured: Cmax (ng/mL)
Answers are plain numbers, in ng/mL.

Cmax reading for [2H][C@@](C)(NC(=O)COC(F)F)c1cc(F)cc(Cl)c1COc1cccc2c(-c3ncnn3C)cc(C)nc12 : 11.1

----------
Assay: Single ascending dose study in healthy volunteers, plasma PK (Example 2)
Format: in vivo, human
Details: human, plasma, oral, 22 mg, after HCHF breakfast; mean
Quantity measured: Cmax (ng/mL)
Numbers only, in ng/mL.

Quick note, Cmax for [2H][C@@](C)(NC(=O)COC(F)F)c1cc(F)cc(Cl)c1COc1cccc2c(-c3ncnn3C)cc(C)nc12 [compound of formula (I)] landed at 145

----------
Test: Single ascending dose study in healthy volunteers, plasma PK (Example 2)
Type: in vivo, human
Conditions: human, plasma, oral, 22 mg, fasted; mean; read-out: C0.25h
Quantity measured: concentration at 0.25 h (ng/mL)
Numbers only, in ng/mL.

[2H][C@@](C)(NC(=O)COC(F)F)c1cc(F)cc(Cl)c1COc1cccc2c(-c3ncnn3C)cc(C)nc12 has a reported concentration at 0.25 h of 143
